Value source: patent US11168083B2

Quick record: IC50, Thrombin (Homo sapiens (Human)).

COMPOUND | IC50
Nc1nccc2cc(CCNC(=O)c3csc([C@@H]4C[C@@H](N)CN4C(=O)c4cn5cc(Cl)ccc5n4)n3)ccc12 [Compound 53] | > 10 µM

Shift focus to the following entry.
Inquiry: // lookup IC50 for CNC(=O)[C@H](CCCCNC(=N)N)NC(=O)c1csc([C@@H]2C[C@@H](N)CN2C(=O)c2cn3cc(Cl)ccc3n2)n1 [Compound 11]
Reply text: > 10 µM

----------
Target: human activated kallikrein enzyme (Homo sapiens (Human), UniProt P03952)
Sequence (P03952 391-638): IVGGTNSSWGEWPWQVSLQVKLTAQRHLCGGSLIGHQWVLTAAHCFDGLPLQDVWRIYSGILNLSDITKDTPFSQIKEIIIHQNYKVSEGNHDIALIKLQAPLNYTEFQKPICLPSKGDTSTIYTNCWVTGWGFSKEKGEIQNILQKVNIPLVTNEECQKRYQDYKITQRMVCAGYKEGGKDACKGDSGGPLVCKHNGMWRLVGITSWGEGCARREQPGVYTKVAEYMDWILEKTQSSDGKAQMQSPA
Sequence (P03952 20-390 partner): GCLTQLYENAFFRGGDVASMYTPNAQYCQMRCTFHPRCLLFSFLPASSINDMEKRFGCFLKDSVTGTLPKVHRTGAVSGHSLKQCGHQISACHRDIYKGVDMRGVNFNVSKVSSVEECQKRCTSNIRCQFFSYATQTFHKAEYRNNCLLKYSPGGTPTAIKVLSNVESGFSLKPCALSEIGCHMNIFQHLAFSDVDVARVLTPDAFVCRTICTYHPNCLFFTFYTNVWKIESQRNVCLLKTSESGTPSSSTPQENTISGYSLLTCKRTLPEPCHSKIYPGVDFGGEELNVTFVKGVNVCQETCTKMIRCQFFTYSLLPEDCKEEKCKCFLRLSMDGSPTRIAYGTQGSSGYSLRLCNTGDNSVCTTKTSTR
Assay: Inhibition of human activated kallikrein enzyme, fluorogenic peptide substrate assay (two formats)
Format: biochemical
Details: Table 2; column head prints nM, ranges defined in μM; read-out: pKal EC50
Listed here: items and their measured EC50.

Consider the reported EC50 for these compounds:
COMPOUND | EC50
N=C(N)NCCCC[C@H](NC(=O)c1csc([C@@H]2C[C@@H](N)CN2C(=O)c2cn3cc(Cl)ccc3n2)n1)C(N)=O [Compound 22] | ≤ 100 nM
CNC(=O)[C@H](CCCCNC(=N)N)NC(=O)c1csc([C@@H]2C[C@@H](N)CN2C(=O)c2ccc3nc(Cl)ccc3c2)n1 [Compound 67] | 1000 to 5000 nM
CNC(=O)[C@@H](CCCCNC(=N)N)NC(=O)c1csc([C@H]2C[C@H](O)CN2C(=O)c2cn3cc(Cl)ccc3n2)n1 [Compound 8] | > 9900 nM
NCc1ccc(CCNC(=O)c2csc([C@@H]3C[C@@H](N)CN3C(=O)c3cn4cc(Cl)ccc4n3)n2)cc1 [Compound 54] | 1000 to 5000 nM
NCc1ccc(CNC(=O)c2csc([C@@H]3C[C@@H](N)CN3C(=O)c3cn4cc(Cl)ccc4n3)n2)cc1 [Compound 50] | 5000 to 9900 nM

Inquiry: Form field - read-out: EC50; system: human activated kallikrein enzyme (Homo sapiens (Human), UniProt P03952); submitted item: N=C(N)NCCCC[C@H](NC(=O)c1csc([C@@H]2C[C@@H](N)CN2C(=O)c2cn3cc(Cl)ccc3n2)n1)C(=O)O [Compound 23]
Reply text: ≤ 100 nM

----------
Biological target: human activated kallikrein enzyme (Homo sapiens (Human))
Assay: Inhibition of human activated kallikrein enzyme, fluorogenic peptide substrate assay (two formats)
Format: biochemical
Conditions: Table 2; column head prints nM, ranges defined in μM; read-out: pKal EC50
MEASUREMENT TYPE: EC50

Consider the reported EC50 for these compounds:
INPUT SMILES | OBSERVED RESULT
CNC(=O)[C@H](CCCCNC(=N)N)NC(=O)c1csc([C@@H]2C[C@@H](N)CN2C(=O)c2cn3cc(OC)ccc3n2)n1 | 100 to 1000 nM
N=C(N)c1ccc(CCNC(=O)c2csc([C@@H]3C[C@@H](N)CN3C(=O)c3cn4cc(Cl)ccc4n3)n2)cc1 | ≤ 100 nM

Shift focus to the following entry.
Inquiry: // lookup EC50 for CNC(=O)[C@H](CCCCNC(=N)N)NC(=O)c1csc([C@H]2C[C@@H](NC(C)=O)CN2C(=O)c2cn3cc(Cl)ccc3n2)n1
Reply text: > 9900 nM

----------
Biological target: human activated kallikrein enzyme (Homo sapiens (Human))
Experiment: Inhibition of human activated kallikrein enzyme, fluorogenic peptide substrate assay (two formats)
Type: biochemical
Settings: Table 2; column head prints nM, ranges defined in μM; read-out: pKal EC50
Listed here: items and their measured EC50.

Consider the reported EC50 for these molecules:
INPUT SMILES | EC50
CNC(=O)[C@@H](CCCCNC(=N)N)NC(=O)c1csc([C@H]2C[C@@H](N)CN2C(=O)c2cn3cc(Cl)ccc3n2)n1 | > 9900 nM
CNC(=O)[C@H](Cc1c[nH]c2ccccc12)NC(=O)c1csc([C@@H]2C[C@@H](N)CN2C(=O)c2cn3cc(Cl)ccc3n2)n1 | > 9900 nM
CNC(=O)[C@H](CCCCNC(=N)N)NC(=O)c1csc([C@@H]2C[C@@H](N)CN2C(=O)c2nc3cc(Cl)ccc3s2)n1 | ≤ 100 nM

Inquiry: // lookup EC50 for CN(C)C(=O)[C@H](CCCCNC(=N)N)NC(=O)c1csc([C@@H]2C[C@@H](N)CN2C(=O)c2cn3cc(Cl)ccc3n2)n1
Reply text: 100 to 1000 nM

Inquiry: // lookup EC50 for Nc1nccc2cc(CNC(=O)c3csc([C@@H]4C[C@@H](N)CN4C(=O)c4cn5cc(Cl)ccc5n4)n3)ccc12
Reply text: ≤ 100 nM

Inquiry: // lookup EC50 for CNC(=O)[C@H](CCCCNC(=N)N)NC(=O)c1csc([C@@H]2C[C@@H](N)CN2C(=O)c2ccc3c(Cl)csc3c2)n1
Reply text: 5000 to 9900 nM

Inquiry: // lookup EC50 for CNC(=O)[C@H](CCCCNC(=N)N)NC(=O)c1csc([C@H]2C[C@@H](N)CN2C(=O)c2cn3cc(Cl)ccc3n2)n1
Reply text: 1000 to 5000 nM

Inquiry: // lookup EC50 for CNC(=O)[C@@H](CCCCNC(=N)N)NC(=O)c1csc([C@@H]2C[C@@H](N)CN2C(=O)c2cc3cc(Cl)ccc3s2)n1
Reply text: 1000 to 5000 nM

Inquiry: // lookup EC50 for CNC(=O)[C@H](CCCCNC(=N)N)NC(=O)c1csc([C@H]2C[C@@H](O)CN2C(=O)c2cn3cc(Cl)ccc3n2)n1
Reply text: > 9900 nM

Inquiry: // lookup EC50 for CNC(=O)[C@H](CCCCN)NC(=O)c1csc([C@@H]2C[C@@H](N)CN2C(=O)c2cn3cc(Cl)ccc3n2)n1
Reply text: > 9900 nM
